Data provenance is ChEMBL document CHEMBL2424616.

system: Bacillus subtilis; assay: Antibacterial activity against Bacillus subtilis IFO 3007 assessed as growth inhibition at 200 ug/disc after 24 hrs by agar disc-diffusion method; format: functional; details: IFO 3007, 24 h, read-out: DIZ
Entries and their zone of inhibition at 200 µg/disc
Field format: number, assumed mm, no unit text.

Before answering, review these 4 worked examples.
Ask: Could you please provide reported zone of inhibition at 200 µg/disc for Cn1c(C23CC4CC(CC(C4)C2)C3)nn(CNc2ccc(F)cc2)c1=S ? Thanks!
Result: 12

Ask: Could you please provide reported zone of inhibition at 200 µg/disc for S=c1n(CN2CCN(c3ccccc3)CC2)nc(C23CC4CC(CC(C4)C2)C3)n1-c1ccc(Cl)cc1 ? Thanks!
Result: 17

Ask: Could you please provide reported zone of inhibition at 200 µg/disc for COc1ccccc1N1CCN(Cn2nc(C34CC5CC(CC(C5)C3)C4)n(/N=C/c3ccc(O)cc3)c2=S)CC1 ? Thanks!
Result: 29

Ask: Could you please provide reported zone of inhibition at 200 µg/disc for Cn1c(C23CC4CC(CC(C4)C2)C3)nn(CN2CCN(c3ccccc3)CC2)c1=S ? Thanks!
Result: 18

Continuing:
Ask: Could you please provide reported zone of inhibition at 200 µg/disc for COc1ccccc1N1CCN(Cn2nc(C34CC5CC(CC(C5)C3)C4)n(/N=C/c3ccccc3O)c2=S)CC1 ? Thanks!
Result: 33

Ask: Could you please provide reported zone of inhibition at 200 µg/disc for Fc1cccc(F)c1NCn1nc(C23CC4CC(CC(C4)C2)C3)n(-c2ccc(Cl)cc2)c1=S ? Thanks!
Result: 20
